meta.source: ChEMBL document CHEMBL1121733

Quick list: Control per entry.
assay-protocol: Percent inhibition of lactic acid production by the compound at 5 p.p.m.
Format: functional
Design: scale not given: the % may be the effect or the level left
reported-property: Control (%)

>  <compound>
CC1(C)SC2C(NC(=O)N/C=C/c3ccco3)C(=O)N2[C@H]1C(=O)[O-].[Na+] (stereo not given in full)

>  <reported-property>
Control

>  <observed-measurement>
89

$$$$
>  <compound>
CC1(C)SC2C(NC(=O)N/C=C/c3ccc4ccccc4c3)C(=O)N2[C@H]1C(=O)[O-].[Na+] (stereo not given in full)

>  <reported-property>
Control

>  <observed-measurement>
2

$$$$
>  <compound>
CC(C)(C)c1ccc(/C=C/NC(=O)NC2C(=O)N3C2SC(C)(C)[C@@H]3C(=O)O)cc1 (stereo not given in full)

>  <reported-property>
Control

>  <observed-measurement>
0

$$$$
>  <compound>
CC1(C)SC2C(NC(=O)NC3CCCCC3)C(=O)N2[C@H]1C(=O)[O-].[Na+] (stereo not given in full)

>  <reported-property>
Control

>  <observed-measurement>
0

$$$$
>  <compound>
CC1(C)SC2C(NC(=O)N/C=C/c3cccs3)C(=O)N2[C@H]1C(=O)[O-].[Na+] (stereo not given in full)

>  <reported-property>
Control

>  <observed-measurement>
52

$$$$
